Cited source: patent US20170217889A1

pIC50 values by entry
Method Summary: Cytotoxicity, K562 cell growth inhibition (Cell Counting Kit-8 / WST-8)
Assay type: cell-based
Measurement Context: human; K562 cells; 6-48 hrs incubation; WST-8 absorbance at 450 nm; read-out: Cytotoxic activity evaluated using K562 cells IC50
The quantity pIC50 is defined as the negative base-10 logarithm of the molar concentration.

{"columns": ["Smiles Entry", "Assay Result"],
 "data": [
  ["CCOC(=O)c1cc(-c2ccc(Cl)cc2)cc(C(=O)OCC)n1", 4.30],
  ["CCOC(=O)c1cc(C2CCCCC2)cc(C(=O)OCC)n1", 4.29]
]}

**Q:** Could you share which pIC50 value was measured for CCOC(=O)c1cc(-c2ccc(Br)cc2)cc(C(=O)OCC)n1 ?
**A:** 4.46
